# credit: ChEMBL document CHEMBL3994625

target: Amine oxidase [flavin-containing] A (Rattus norvegicus)
Sequence (P21396 whole entry): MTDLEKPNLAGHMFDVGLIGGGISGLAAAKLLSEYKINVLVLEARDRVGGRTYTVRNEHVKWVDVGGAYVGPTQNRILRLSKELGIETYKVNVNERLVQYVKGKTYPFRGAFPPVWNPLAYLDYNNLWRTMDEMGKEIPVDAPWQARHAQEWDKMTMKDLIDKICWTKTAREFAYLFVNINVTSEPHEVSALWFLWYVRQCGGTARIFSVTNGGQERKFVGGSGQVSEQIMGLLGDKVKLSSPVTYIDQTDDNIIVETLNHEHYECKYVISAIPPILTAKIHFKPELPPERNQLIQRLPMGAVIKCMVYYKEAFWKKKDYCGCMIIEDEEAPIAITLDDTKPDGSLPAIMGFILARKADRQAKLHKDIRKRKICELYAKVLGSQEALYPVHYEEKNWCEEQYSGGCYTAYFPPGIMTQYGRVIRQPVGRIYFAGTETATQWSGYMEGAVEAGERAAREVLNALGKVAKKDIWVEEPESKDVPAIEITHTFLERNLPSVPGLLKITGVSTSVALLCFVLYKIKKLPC
pIC50: −log10 of the molar value.
readout-name: pIC50

Req: Report the value of pIC50 obtained on Amine oxidase [flavin-containing] A (Rattus norvegicus) for `COCCn1ncc2cc(C(=O)Nc3ccc(Cl)c(Cl)c3)ccc21` .
Resp: < 5.00

----------
conditions: buffer, pH 5.5, […], 500 µM
// values below are reported log(Kinetic_solubility)

Use the examples below as a reference point.
Cn1cc2cc(C(=O)Nc3ccc(F)c(Cl)c3)ccc2n1; -3.38
Cn1cc2cc(C(=O)Nc3ccc(Cl)c(Cl)c3)ccc2n1; -4.3
O=C(Nc1ccc(F)c(F)c1)c1ccc2[nH]ncc2c1; -4.2

We next turn to a different compound, shown below.
Req: Determine its reported log(Kinetic_solubility): `Cn1ncc2cc(C(=O)Nc3ccc(Cl)c(Cl)c3)ccc21`
Resp: -5.52

----------
experiment: Effective permeability of the compound at pH 2 at 200 uM after 4 hrs by PAMPA-GI assay; type: physicochemical; conditions: read-out: Peff
readout-name: Papp at 4 h, 200 µM (×10⁻⁶ cm/s)
Lab book: enter the figure in ×10⁻⁶ cm/s, no units written.

Cn1cc2cc(C(=O)Nc3ccc(F)c(Cl)c3)ccc2n1; 8.16
Cn1cc2cc(C(=O)Nc3ccc(Cl)c(Cl)c3)ccc2n1; 14.5
Cn1ncc2cc(C(=O)Nc3ccc(Cl)c(Cl)c3)ccc21; 18.3

We next turn to a different compound, shown below.
Req: Determine its reported Papp at 4 h, 200 µM: `Cn1ncc2cc(C(=O)Nc3ccc(F)c(Cl)c3)ccc21`
Resp: 27.2

----------
assay: Effective permeability of the compound at pH 7.4 at 200 uM after 4 hrs by PAMPA-GI assay; assay type: physicochemical; settings: read-out: Peff
// values below are reported Papp at 4 h, 200 µM

Use the examples below as a reference point.
O=C(Nc1ccc(F)c(F)c1)c1ccc2[nH]ncc2c1; ≤ 0.59 ×10⁻⁶ cm/s
Cn1ncc2cc(C(=O)Nc3ccc(F)c(Cl)c3)ccc21; 31.7 ×10⁻⁶ cm/s
Cn1cc2cc(C(=O)Nc3ccc(F)c(Cl)c3)ccc2n1; 9.35 ×10⁻⁶ cm/s
Cn1ncc2cc(C(=O)Nc3ccc(Cl)c(Cl)c3)ccc21; 18.6 ×10⁻⁶ cm/s

Req: Determine its reported Papp at 4 h, 200 µM: `Cn1cc2cc(C(=O)Nc3ccc(Cl)c(Cl)c3)ccc2n1`
Resp: 17.6 ×10⁻⁶ cm/s

----------
Target: Amine oxidase [flavin-containing] B (Rattus norvegicus)
Sequence (P19643 whole entry): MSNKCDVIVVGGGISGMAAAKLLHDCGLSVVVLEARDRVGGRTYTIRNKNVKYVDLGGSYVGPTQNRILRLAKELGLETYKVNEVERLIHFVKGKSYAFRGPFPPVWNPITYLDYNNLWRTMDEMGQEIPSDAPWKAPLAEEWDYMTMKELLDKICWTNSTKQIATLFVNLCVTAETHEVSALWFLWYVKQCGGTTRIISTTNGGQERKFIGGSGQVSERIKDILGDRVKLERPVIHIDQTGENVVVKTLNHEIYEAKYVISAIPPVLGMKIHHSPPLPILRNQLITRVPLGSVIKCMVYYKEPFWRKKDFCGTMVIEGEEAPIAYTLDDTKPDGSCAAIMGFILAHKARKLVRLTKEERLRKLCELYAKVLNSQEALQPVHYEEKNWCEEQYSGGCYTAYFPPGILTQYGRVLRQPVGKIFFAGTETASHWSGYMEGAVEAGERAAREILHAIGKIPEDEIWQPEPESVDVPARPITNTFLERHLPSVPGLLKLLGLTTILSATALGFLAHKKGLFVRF
Experiment: Inhibition of MAOB in Sprague-Dawley rat liver mitochondria using p-tyramine as substrate measured for 45 mins in presence of MAOA inhibitor clorgyline by continuous fluorescence-based method
readout-name: IC50 (nM)
Lab book: enter the figure in nM, no units written.

Req: Determine its reported IC50: `COCCn1ncc2cc(C(=O)Nc3ccc(Cl)c(Cl)c3)ccc21`
Resp: 3.82

----------
// values below are reported logD at […]
test: n-octanol-phosphate buffer distribution coefficient, log D of the compound at pH 7.4 after 90 mins by shake-flask method; assay type: physicochemical

Use the examples below as a reference point.
Cn1cc2cc(C(=O)Nc3ccc(F)c(Cl)c3)ccc2n1; 2.64
Cn1cc2cc(C(=O)Nc3ccc(Cl)c(Cl)c3)ccc2n1; 2.97

Req: Determine its reported logD at […]: COCCc1ccc(OCC(O)CNC(C)C)cc1 (stereo not drawn) [METOPROLOL]
Resp: -0.37

----------
species on record: Homo sapiens; assay: Selectivity index, ratio of IC50 for recombinant human MAOA to IC50 for recombinant human MAOB
readout-name: Ratio IC50
Note: the reply should be a number with no unit written.

Req: Determine its reported Ratio IC50: `Cn1cc2cc(C(=O)Nc3ccc(F)c(F)c3)ccc2n1`
Resp: 20

Req: Determine its reported Ratio IC50: `O=C(Nc1ccc(Cl)c(Cl)c1)c1ccc2[nH]ncc2c1`
Resp: 17100

Req: Determine its reported Ratio IC50: `O=C(Nc1ccc(F)c(F)c1)c1ccc2[nH]ncc2c1`
Resp: 6290

Req: Determine its reported Ratio IC50: `Cn1cc2cc(C(=O)Nc3ccc(F)c(Cl)c3)ccc2n1`
Resp: 70

Req: Determine its reported Ratio IC50: `Cn1ncc2cc(C(=O)Nc3ccc(F)c(F)c3)ccc21`
Resp: 6580

----------
assay: n-octanol-phosphate buffer distribution coefficient, log D of the compound at pH 5.5 after 90 mins by shake-flask method; format: physicochemical
// values below are reported logD at […]
Note: the reply should be a number with no unit written.

Use the examples below as a reference point.
COCCc1ccc(OCC(O)CNC(C)C)cc1 (stereo not given); -0.76
Cn1cc2cc(C(=O)Nc3ccc(Cl)c(Cl)c3)ccc2n1; 2.54
O=C(Nc1ccc(F)c(F)c1)c1ccc2[nH]ncc2c1; 1.94
Cn1cc2cc(C(=O)Nc3ccc(F)c(Cl)c3)ccc2n1; 2.55

Req: Determine its reported logD at […]: `Cn1ncc2cc(C(=O)Nc3ccc(F)c(Cl)c3)ccc21`
Resp: 2.52

----------
assay: Effective permeability of the compound at pH 7.4 at 200 uM after 4 hrs by PAMPA-BBB assay; type: physicochemical; conditions: read-out: Peff
// values below are reported Papp at 4 h, 200 µM

Use the examples below as a reference point.
Cn1ncc2cc(C(=O)Nc3ccc(F)c(Cl)c3)ccc21; 37.6 ×10⁻⁶ cm/s
O=C(Nc1ccc(F)c(F)c1)c1ccc2[nH]ncc2c1; 8.15 ×10⁻⁶ cm/s

We next turn to a different compound, shown below.
Req: Determine its reported Papp at 4 h, 200 µM: `Cn1cc2cc(C(=O)Nc3ccc(Cl)c(Cl)c3)ccc2n1`
Resp: 29 ×10⁻⁶ cm/s
